- target_or_system: T1, extracellular domain of activin receptor type IIB (ActRIIBecd), biotinylated (Homo sapiens (Human), UniProt Q13705 27-117, amino-biotinylated with amine-PEG3-Biotin)
- T1 construct: immobilised on a streptavidin-coated sensor chip; also called biotinylated ActRIIBecd; extracellular domain of ActRIIB
- T1 sequence: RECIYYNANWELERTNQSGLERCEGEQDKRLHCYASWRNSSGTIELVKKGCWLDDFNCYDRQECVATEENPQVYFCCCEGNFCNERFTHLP
- procedure_summary: Mean KD column of Table 5; method not restated (BIAcore as Example 5); species also listed in Table 4
Documented Kd across a set of binders
Quote the value and follow it with the unit of measurement.

| binder | Kd |
| --- | --- |
| SEQ ID NO: 260, cysteine pairs C15-C15^b, C80-C114^a, C79-C112^a, C44-C48^a (designed binder, disulfides C15-C15 (inter), C80-C114 (intra), C79-C112 (intra), C44-C48 (intra), homodimer by intermolecular disulfide) AQAKHKQRKRLKSSCKRHPLYVDFSDVGWNDWIVAPPGYHAFYCHGECPFPLADHLNSTNHAIVQTLVNSVNSKIPKACCVPTELSAISMLYLDENEKVVLKNYQDMVVEGCGCR | 7.45 nM |

# binder SEQ ID NO: 284, cysteine pairs C59-C59^b, C8-C41^b, C9-C43^b, C88-C92^a (designed binder, disulfides C59-C59 (inter), C8-C41 (inter), C9-C43 (inter), C88-C92 (intra), homodimer by intermolecular disulfide) NSKIPKACCVPTELSAISMLYLDENEKVVLKNYQDMVVEGCGCRAQAKHKQRKRLKSSCKRHPLYVDFSDVGWNDWIVAPPGYHAFYCHGECPFPLADHLNSTNHAIVQTLVNSV ; its Kd = 5.79 nM
